Target Under Test: Bcl-xL, Q07817
Sequence (Q07817 1-209): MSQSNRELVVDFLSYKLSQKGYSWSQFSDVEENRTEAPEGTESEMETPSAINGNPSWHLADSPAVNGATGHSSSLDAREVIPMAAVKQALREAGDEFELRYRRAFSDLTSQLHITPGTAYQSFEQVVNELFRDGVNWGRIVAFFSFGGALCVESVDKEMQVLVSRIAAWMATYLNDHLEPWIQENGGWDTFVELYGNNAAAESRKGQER
Protocol Summary: peptide SPOT array, c-Myc-tagged receptor at 1 uM or 100 nM, anti-c-Myc-Cy3
Parameter Measured: SPOT signal as a fraction of Bim BH3's signal on the same receptor and array

[
  {
    "Binder": "YKGHREIARYLLEQGAQVNRRSAKGN [FEM1A]",
    "Measured Value": 1.44
  },
  {
    "Binder": "HTALENCASLLCIRADELQEALTSHC [MYO3A]",
    "Measured Value": 0.07
  },
  {
    "Binder": "ELQAPATVQSLGLLLDRLCVGAAGGF [CDC42BPG]",
    "Measured Value": 0.01
  }
]

[P] HRTSNVLTLSLKRFLNFSGGKITKDV [USP36]
[Q] IQQDLGCGASLGVISDNLLVTGGQGC [SCAP]
Exercise: Determine, for P and Q , which has the greater value of SPOT signal as a fraction of Bim BH3's signal on the same receptor and array. Answer by stating the label of the chosen item.
Key: P

[a] RRFAKTIGKVDMQYADILSKDFPAYC [UNC13B]
[b] FEKLRMIAKEIRHVLRMASVNMDPAL [RAPGEF2]
Exercise: Consider entries a and b . Which has the numerically lower SPOT signal as a fraction of Bim BH3's signal on the same receptor and array? Answer by stating the label of the chosen item.
Key: b

[A] TSRINEVQVNLSLLGDDLLLPAQSTL [SPHKAP]
[B] MRSQLGKATADAIMGDKLWWADQVSE [LRP1]
[C] KEVEDCVPVFLKHIAHDIYVCGKTIN [TUBGCP6]
[D] PFDCRDYAVVDRKYADKIYSISMKHP [FOLH1]
Exercise: Rank order required: SPOT signal as a fraction of Bim BH3's signal on the same receptor and array, descending. Output the labels ranked as instructed.
Key: D, B, A, C
(D: 0.45, B: 0.17, A: 0.06, C: 0.04)

[1] RAEIEKMAEKINDIAYEMESRRTYLQ [C3orf15]
[2] WLVLRRLVTLITQLAKELSNKGVLKT [BCAP29]
Exercise: Determine, for 1 and 2 , which has the greater value of SPOT signal as a fraction of Bim BH3's signal on the same receptor and array. Answer by stating the label of the chosen item.
Key: 2

Source listed as paper PMC4072508.
